measured_target: H. pylori glutamate racemase (GR) (Helicobacter pylori, UniProt Q9ZLT0)
Sequence (Q9ZLT0 whole entry): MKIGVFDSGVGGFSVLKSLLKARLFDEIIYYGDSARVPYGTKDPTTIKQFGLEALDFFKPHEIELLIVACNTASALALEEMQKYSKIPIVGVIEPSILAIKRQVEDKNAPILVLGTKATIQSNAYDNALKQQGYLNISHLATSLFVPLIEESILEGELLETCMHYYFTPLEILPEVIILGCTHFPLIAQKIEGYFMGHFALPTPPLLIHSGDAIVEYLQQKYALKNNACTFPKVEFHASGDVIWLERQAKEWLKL
pIC50: −log10 of the molar value.
measured_parameter: pIC50

1. Cc1cc2c(c(-c3c(O)c(C)cc4c3C(=O)c3c(O)cc(O)cc3C4=O)c1O)C(=O)c1c(O)cc(O)cc1C2=O ... 5.18

---

measured_target: H. pylori glutamate racemase (GR) (Helicobacter pylori, UniProt Q9ZLT0)
run_description: Surface plasmon resonance (SPR) binding to immobilized GR
applied_conditions: 1:1 Langmuir binding model, absence of substrate D-Glu, 25 °C, 500-7.81 µM dilution series
measured_parameter: Kd (µM)

1. Cc1cc2c(c(-c3c(O)c(C)cc4c3C(=O)c3c(O)cc(O)cc3C4=O)c1O)C(=O)c1c(O)cc(O)cc1C2=O [NP-020560] ... 54.7
